test: UDPGA-dependent metabolic stability in dog liver microsomes; type: in vitro ADME; conditions: dog, liver microsomes, pH 7.4, dog liver microsomes, NADPH +, read-out: CLint, hepatic
quantity measured: CLint scaled at 100 µM (mL/min/kg)
Numbers only, in mL/min/kg.

Can you share its CLint scaled at 100 µM? I mean this molecule: COc1cc(O)c2c(c1)OC(c1ccc(O)cc1)CC2=O (racemic) [SKN, (+/−) 7-O-methylnaringenin]
300

====

test system: CYP isozymes (all isozyme-specific reactions); test: CYP inhibition in human liver microsomes, all isozyme-specific reactions; assay type: in vitro ADME; details: pH 7.4, SKN 10 μM, read-out: inhibitory effect on the formation of any CYP isozyme-specific metabolites
quantity measured: inhibition at 60 min, 10 µM

Requested read-out inhibition at 60 min, 10 µM, target or system CYP isozymes (all isozyme-specific reactions), entry COc1cc(O)c2c(c1)OC(c1ccc(O)cc1)CC2=O (racemic) [SKN, (+/−) 7-O-methylnaringenin]
≤ 20%

====

test: UDPGA-dependent metabolic stability in rat liver microsomes; type: in vitro ADME; conditions: pH 7.4, NADPH −, read-out: CLint, hepatic
quantity measured: CLint scaled at 100 µM (mL/min/kg)
Numbers only, in mL/min/kg.

# input compound: COc1cc(O)c2c(c1)OC(c1ccc(O)cc1)CC2=O (racemic) [SKN, (+/−) 7-O-methylnaringenin] ; wanted: its CLint scaled at 100 µM
287

====

Target: UGT1A1 (Homo sapiens, UniProt P22309)
Construct: The typical incubation mixture contained human liver microsomes (0.5 mg/mL) along with SKN (10 μM); tissue BD Gentest; host or cells: human liver microsomes
Sequence (P22309 26-533): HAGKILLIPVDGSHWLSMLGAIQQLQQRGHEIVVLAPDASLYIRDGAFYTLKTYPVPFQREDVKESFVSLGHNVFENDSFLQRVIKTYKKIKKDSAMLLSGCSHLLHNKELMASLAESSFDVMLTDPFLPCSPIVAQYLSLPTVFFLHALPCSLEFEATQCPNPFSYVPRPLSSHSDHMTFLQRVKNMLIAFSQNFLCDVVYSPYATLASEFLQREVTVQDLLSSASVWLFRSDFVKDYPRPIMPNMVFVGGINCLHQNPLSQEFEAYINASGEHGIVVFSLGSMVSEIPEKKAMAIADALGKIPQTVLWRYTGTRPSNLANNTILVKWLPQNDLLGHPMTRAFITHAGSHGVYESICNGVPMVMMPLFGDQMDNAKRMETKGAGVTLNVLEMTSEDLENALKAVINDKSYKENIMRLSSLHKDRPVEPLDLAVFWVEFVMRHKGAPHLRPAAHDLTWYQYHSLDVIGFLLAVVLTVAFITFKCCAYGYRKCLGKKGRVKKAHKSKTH
Assay: UGT inhibition in human liver microsomes, 17β-estradiol 3-O-glucuronidation (ESG)
Format: in vitro ADME
Settings: pH 7.4, probe 17β-estradiol (200 μM), inhibitor 10 µM, human liver microsomes 0.5 mg/mL, read-out: Inhibition (%)
Experimental: The formation of a glucuronide conjugate from an isozyme-specific substrate (200 μM, Table 5) was examined to determine UGT activity levels in human liver microsomes. The typical incubation mixture contained human liver microsomes (0.5 mg/mL) along with SKN (10 μM), and MgCl2 (10 mM) in 50 mM Tris-HCl buffer (pH 7.4). The metabolic reaction was initiated by adding UPDGA (2 mM) and stopped by adding an equal volume of ice-cold methanol. […]
quantity measured: inhibition at 10 μM (%)
Numbers only, in %.

O=C1C[C@@H](c2ccc(O)cc2)Oc2cc(O)cc(O)c21	10.8

// below: inhibition at 10 μM requested for another compound
What value of inhibition at 10 μM has been reported for the following compound? O=C1C[C@@H](c2ccc(O)c(O)c2)Oc2cc(O)cc(O)c21 [Eriodictyol, 3′-hydroxynaringenin]
20.8

====

target: UniProt:P05177; assay: CYP inhibition in human liver microsomes, phenacetin O-deethylation (PCOD); format: in vitro ADME; conditions: liver microsomes, pH 7.4, probe phenacetin (O-deethylation, PCOD), 200 μM, SKN 10 μM, 15 min pre-incubation, read-out: % Inhibition in Pre-Incubation
Sequence (P05177 whole entry): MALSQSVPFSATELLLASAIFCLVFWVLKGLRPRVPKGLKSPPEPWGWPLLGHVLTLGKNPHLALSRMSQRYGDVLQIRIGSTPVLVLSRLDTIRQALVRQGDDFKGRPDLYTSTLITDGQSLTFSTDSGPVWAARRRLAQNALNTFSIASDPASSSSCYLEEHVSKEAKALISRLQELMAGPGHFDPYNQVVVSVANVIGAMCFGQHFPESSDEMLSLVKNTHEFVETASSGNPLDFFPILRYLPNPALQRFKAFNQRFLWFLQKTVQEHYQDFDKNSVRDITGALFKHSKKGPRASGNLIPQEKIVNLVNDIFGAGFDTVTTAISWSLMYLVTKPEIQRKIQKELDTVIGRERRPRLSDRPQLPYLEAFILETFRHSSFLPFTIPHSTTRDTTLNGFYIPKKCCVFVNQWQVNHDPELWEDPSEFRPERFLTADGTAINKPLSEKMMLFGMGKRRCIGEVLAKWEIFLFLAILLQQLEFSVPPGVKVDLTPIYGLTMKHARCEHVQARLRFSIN
quantity measured: inhibition at 60 min, 10 µM (%)
Give bare numbers, in %.

Tell me the measured inhibition at 60 min, 10 µM of COc1cc(O)c2c(c1)OC(c1ccc(O)cc1)CC2=O (racemic) [SKN, (+/−) 7-O-methylnaringenin] , please.
1.5

Reference source: paper PMC6100415
